- Measurement target: human 5-HT5A receptor (Homo sapiens (Human), UniProt P47898)
- Sequence (P47898 whole entry): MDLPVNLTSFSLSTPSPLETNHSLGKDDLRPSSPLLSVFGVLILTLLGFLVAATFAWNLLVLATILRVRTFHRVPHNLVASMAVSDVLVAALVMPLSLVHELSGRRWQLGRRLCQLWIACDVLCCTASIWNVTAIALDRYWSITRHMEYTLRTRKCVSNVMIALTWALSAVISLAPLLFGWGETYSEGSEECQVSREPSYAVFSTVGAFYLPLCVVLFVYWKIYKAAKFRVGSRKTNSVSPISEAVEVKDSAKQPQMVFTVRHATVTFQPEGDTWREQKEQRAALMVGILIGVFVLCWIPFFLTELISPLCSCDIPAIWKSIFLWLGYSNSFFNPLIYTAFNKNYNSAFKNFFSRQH
- Assay protocol: Test on a human 5-HT5A receptor binding inhibition ([3H]5-CT)
- Test context: [3H]5-CT binding, membrane from HEK293 cells expressing human 5-HT5A receptor; Ki calculated from IC50
Listed here: items and their measured Ki.

Smiles repr | Measurement target | Reported result
NC(N)=NC(=O)c1ccc2c(F)cnc(-c3c(O)cccc3F)c2c1 | human 5-HT5A receptor (Homo sapiens (Human), UniProt P47898) | 1 to 10 nM
COc1cc(Cl)ccc1-c1ncc(F)c2ccc(C(=O)N=C(N)N)cc12 | human 5-HT5A receptor (Homo sapiens (Human), UniProt P47898) | 10 to 100 nM
NC(N)=NC(=O)c1ccc2c(F)cnc(-c3cccc(Cl)c3F)c2c1 | human 5-HT5A receptor (Homo sapiens (Human), UniProt P47898) | 1 to 10 nM

Problem: Under human 5-HT5A receptor (Homo sapiens (Human), UniProt P47898): Ki value of `COc1cccc(F)c1-c1c(C)c(C)nc2ccc(C(=O)N=C(N)N)cc12` ?
Result: 10 to 100 nM

Problem: Under human 5-HT5A receptor (Homo sapiens (Human), UniProt P47898): Ki value of `Cc1nc2ccc(C(=O)N=C(N)N)cc2c(-c2c(F)cccc2F)c1C` ?
Result: 1 to 10 nM

Problem: Under human 5-HT5A receptor (Homo sapiens (Human), UniProt P47898): Ki value of `Cc1cc(-c2ccccc2F)c2cc(C(=O)N=C(N)N)ccc2n1` ?
Result: 10 to 100 nM

---

- Measurement target: human 5-HT5A receptor (Homo sapiens (Human))
- Assay protocol: Test on a human 5-HT5A receptor binding inhibition ([3H]5-CT)
- Test context: [3H]5-CT binding, membrane from HEK293 cells expressing human 5-HT5A receptor; Ki calculated from IC50
Experimental endpoint: Ki

Use the examples below as a reference point.
Molecule | Ki
Cc1cc(C(=O)N=C(N)N)cc2c(-c3ccc(F)cc3F)ccnc12 [Example 44] | 1 to 10 nM
NC(N)=NC(=O)c1ccc2nccc(-c3c(Cl)cc(Cl)cc3Cl)c2c1 [Example 27] | 1 to 10 nM
COc1cc(F)ccc1-c1ncc(F)c2ccc(C(=O)N=C(N)N)cc12 [Example 202] | 10 to 100 nM

Problem: Given the molecule NC(N)=NC(=O)c1ccc2nccc(-c3ccc(F)cc3Cl)c2c1 [Example 15] , what is its reported Ki?
Result: 1 to 10 nM

Problem: Given the molecule NC(N)=NC(=O)c1ccc2nccc(-c3cc(Cl)c(F)cc3F)c2c1 [Example 20] , what is its reported Ki?
Result: 10 to 100 nM

Problem: Given the molecule NC(N)=NC(=O)c1ccc2nccc(-c3cc(Cl)ccc3Cl)c2c1 [Example 18] , what is its reported Ki?
Result: 10 to 100 nM

Problem: Given the molecule NC(N)=NC(=O)c1ccc2ncc(C(F)(F)F)c(-c3ccc(F)cc3F)c2c1 [Example 86] , what is its reported Ki?
Result: 10 to 100 nM

---

Listed here: items and their measured pKi.
- Measurement target: human 5-HT5A receptor (Homo sapiens (Human))
- Assay protocol: Test on a human 5-HT5A receptor binding inhibition ([3H]5-CT)
- Test context: [3H]5-CT binding, membrane from HEK293 cells expressing human 5-HT5A receptor; Ki calculated from IC50
pKi: −log10 of the molar value.

Molecule | Measurement target | Experimental endpoint | Reported result
NC(N)=NC(=O)c1ccc2c(CO)cnc(-c3c(F)cccc3F)c2c1 [Example 224] | human 5-HT5A receptor (Homo sapiens (Human)) | pKi | 7.00 to 8.00

Now turn to the next molecule.
Problem: Given the molecule Cc1cc(C(=O)N=C(N)N)cc2c(-c3c(Cl)cccc3Cl)ccnc12 [Example 55] , what is its reported pKi?
Result: 8.00 to 9.00

---

- Measurement target: UniProt P47898
- Assay protocol: Test on a human 5-HT5A receptor binding inhibition ([3H]5-CT)
- Test context: [3H]5-CT binding, membrane from HEK293 cells expressing human 5-HT5A receptor; Ki calculated from IC50
Listed here: items and their measured Ki.

Use the examples below as a reference point.
Compound | Ki
CC(C)c1cnc(-c2c(F)cccc2F)c2cc(C(=O)N=C(N)N)ccc12 | 10 to 100 nM
NC(N)=NC(=O)c1ccc2c(F)cnc(-c3c(F)cc(F)cc3F)c2c1 | 1 to 10 nM
NC(N)=NC(=O)c1ccc2c(F)cnc(-c3ccncc3Cl)c2c1 | 10 to 100 nM

Problem: Given the compound `NC(N)=NC(=O)c1ccc2ncc(Cl)c(-c3ccccc3)c2c1` , what is its reported Ki?
Result: 1 to 10 nM

Problem: Given the compound `Cc1cc(-c2c(F)cc(F)cc2F)c2cc(C(=O)N=C(N)N)ccc2n1` , what is its reported Ki?
Result: 10 to 100 nM

Problem: Given the compound `Cc1cnc2ccc(C(=O)N=C(N)N)cc2c1-c1ccccc1F` , what is its reported Ki?
Result: 1 to 10 nM

---

Listed here: items and their measured Ki.
- Measurement target: human 5-HT5A receptor (Homo sapiens (Human))
- Assay protocol: Test on a human 5-HT5A receptor binding inhibition ([3H]5-CT)
- Test context: [3H]5-CT binding, membrane from HEK293 cells expressing human 5-HT5A receptor; Ki calculated from IC50

Compound | Measurement target | Reported result
NC(N)=NC(=O)c1ccc2cccc(-c3c(F)cc(F)cc3F)c2n1 | human 5-HT5A receptor (Homo sapiens (Human)) | 1 to 10 nM
Cc1cnc2ccc(C(=O)N=C(N)N)cc2c1-c1c(F)cc(F)cc1F | human 5-HT5A receptor (Homo sapiens (Human)) | 1 to 10 nM
Cc1nc2ccc(C(=O)N=C(N)N)cc2c(-c2ccccc2F)c1Cl | human 5-HT5A receptor (Homo sapiens (Human)) | 1 to 10 nM
Cc1cc(C(=O)N=C(N)N)cc2c(-c3cc(F)ccc3Cl)ccnc12 | human 5-HT5A receptor (Homo sapiens (Human)) | 10 to 100 nM
Cc1cc(-c2ccc(F)cc2Cl)c2cc(C(=O)N=C(N)N)cc(C)c2n1 | human 5-HT5A receptor (Homo sapiens (Human)) | 1 to 10 nM

Problem: Under human 5-HT5A receptor (Homo sapiens (Human)): Ki value of `Cc1cnc2ccc(C(=O)N=C(N)N)cc2c1-c1cccc(Cl)c1Cl` ?
Result: 1 to 10 nM

Problem: Under human 5-HT5A receptor (Homo sapiens (Human)): Ki value of `NC(N)=NC(=O)c1ccc2c(Cl)cnc(-c3c(F)cc(F)cc3F)c2c1` ?
Result: 1 to 10 nM

Problem: Under human 5-HT5A receptor (Homo sapiens (Human)): Ki value of `NC(N)=NC(=O)c1ccc2ncc(Cl)c(C3=CCCC3)c2c1` ?
Result: 1 to 10 nM

Problem: Under human 5-HT5A receptor (Homo sapiens (Human)): Ki value of `N#Cc1ccccc1-c1ccnc2ccc(C(=O)N=C(N)N)cc12` ?
Result: 100 to 300 nM

Problem: Under human 5-HT5A receptor (Homo sapiens (Human)): Ki value of `Cc1nc2ccc(C(=O)N=C(N)N)cc2c(-c2ccccc2Cl)c1C` ?
Result: 10 to 100 nM

Problem: Under human 5-HT5A receptor (Homo sapiens (Human)): Ki value of `N#Cc1cc(Cl)ccc1-c1nccc2ccc(C(=O)N=C(N)N)cc12` ?
Result: 10 to 100 nM

Problem: Under human 5-HT5A receptor (Homo sapiens (Human)): Ki value of `Cc1nc2ccc(C(=O)N=C(N)N)cc2c(-c2ccc(F)cc2Cl)c1C` ?
Result: 1 to 10 nM

---

- Measurement target: human 5-HT5A receptor (Homo sapiens (Human))
- Assay protocol: Test on a human 5-HT5A receptor binding inhibition ([3H]5-CT)
- Test context: [3H]5-CT binding, membrane from HEK293 cells expressing human 5-HT5A receptor; Ki calculated from IC50
Experimental endpoint: Ki

Smiles repr | Measurement target | Ki
NC(=O)c1cc(-c2c(F)cc(F)cc2F)c2cc(C(=O)N=C(N)N)ccc2n1 | human 5-HT5A receptor (Homo sapiens (Human)) | 10 to 100 nM
NC(N)=NC(=O)c1ccc2ncc(Cl)c(-c3ccncc3F)c2c1 | human 5-HT5A receptor (Homo sapiens (Human)) | 1 to 10 nM
N#Cc1ccc(-c2ccnc3ccc(C(=O)N=C(N)N)cc23)cc1 | human 5-HT5A receptor (Homo sapiens (Human)) | 10 to 100 nM
Cc1nc2ccc(C(=O)N=C(N)N)cc2c(-c2ccc(F)cc2F)c1Cl | human 5-HT5A receptor (Homo sapiens (Human)) | 1 to 10 nM
N#Cc1ccc(-c2nccc3ccc(C(=O)N=C(N)N)cc23)c(F)c1 | human 5-HT5A receptor (Homo sapiens (Human)) | 1 to 10 nM
Cc1cc(C(=O)N=C(N)N)cc2c(C3=CCCC3)ccnc12 | human 5-HT5A receptor (Homo sapiens (Human)) | 10 to 100 nM
NC(N)=NC(=O)c1ccc2c(F)cnc(-c3c(F)cncc3Cl)c2c1 | human 5-HT5A receptor (Homo sapiens (Human)) | 1 to 10 nM
Cc1cnc(-c2c(F)cccc2Cl)c2cc(C(=O)N=C(N)N)ccc12 | human 5-HT5A receptor (Homo sapiens (Human)) | 1 to 10 nM

Problem: Given the molecule `COc1cc(C#N)ccc1-c1c(C)c(C)nc2ccc(C(=O)N=C(N)N)cc12` , what is its reported Ki?
Result: 10 to 100 nM
